Provenance of the data: the Immune Epitope Database (IEDB)

# TARGET OF ASSAY: HLA-B*08:01
# PROCEDURE TEXT: IEDB peptide-MHC binding, purified MHC/direct/fluorescence; filed as Kd, often an IC50 or EC50 that approximates it; bounds were set here for any values at or beyond the usual limits of such assays
# EXPERIMENTAL CONTEXT: source organism: Influenza A virus (A/goose/Guangxi/1097/2004(H5N1))
READOUT KIND: Kd

[[record]]
biopolymer_sequence = "KYTSGRQEK"
target_of_assay = "HLA-B*08:01"
readout_kind = "Kd"
endpoint_result = "≥ 20 µM"


---

# TARGET OF ASSAY: HLA-B*58:01
# PROCEDURE TEXT: IEDB peptide-MHC binding, purified MHC/competitive/radioactivity; filed as Kd, often an IC50 or EC50 that approximates it; bounds were set here for any values at or beyond the usual limits of such assays
# EXPERIMENTAL CONTEXT: source organism: Dengue virus 4 Dominica/814669/1981
READOUT KIND: Kd

[[record]]
biopolymer_sequence = "GSSIGKMFES"
endpoint_result = "251 nM"

